System: THP-1
Assay info: Cytotoxicity against bortezomib-resistant human THP1 cells assessed as cell viability at 10 uM after 72 hrs by MTS assay relative to vehicle-treated control
Assay type: functional
Particulars: THP-1, 72 h, read-out: Activity
Label 1 when viability at 10 µM is strictly below 30%; otherwise label 0.

Query: viability at 10 µM strictly < 30% for this compound? CCOC(=O)[C@]1(c2ccccc2)N=C(c2ccc(OC)cc2)N(Cc2ccccc2)[C@@H]1c1ccc(NCc2ccc(O)cc2)cc1 (racemic)
Reply: 0

Query: viability at 10 µM strictly < 30% for this compound? CCOC(=O)[C@]1(c2ccccc2)N=C(c2ccc(OC)cc2)N(Cc2ccccc2)[C@@H]1c1ccc(NCc2ccccc2)cc1 (racemic)
Reply: 1

Query: viability at 10 µM strictly < 30% for this compound? CCOC(=O)[C@]1(c2ccccc2)N=C(c2ccc(OC)cc2)N(Cc2ccccc2)[C@@H]1c1ccc(N)cc1 (racemic)
Reply: 0

Query: viability at 10 µM strictly < 30% for this compound? CCOC(=O)[C@]1(c2ccccc2)N=C(c2ccc(OC)cc2)N(Cc2ccccc2)[C@@H]1c1ccc(NCc2cc(OC)c(OC)c(OC)c2)cc1 (racemic)
Reply: 0

Query: viability at 10 µM strictly < 30% for this compound? CCOC(=O)[C@]1(c2ccccc2)N=C(c2ccc(OC)cc2)N(Cc2ccccc2)[C@@H]1c1ccc(NCC2CCCCC2)cc1 (racemic)
Reply: 1

From: ChEMBL document CHEMBL2406988
